# assaySystem: human ether-à-go-go-related gene (hERG) potassium channel (human, UniProt Q12809);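 also: peak tail current of the secondary pulse compared with the same well before compound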
# Sequence (Q12809 whole entry, looked up): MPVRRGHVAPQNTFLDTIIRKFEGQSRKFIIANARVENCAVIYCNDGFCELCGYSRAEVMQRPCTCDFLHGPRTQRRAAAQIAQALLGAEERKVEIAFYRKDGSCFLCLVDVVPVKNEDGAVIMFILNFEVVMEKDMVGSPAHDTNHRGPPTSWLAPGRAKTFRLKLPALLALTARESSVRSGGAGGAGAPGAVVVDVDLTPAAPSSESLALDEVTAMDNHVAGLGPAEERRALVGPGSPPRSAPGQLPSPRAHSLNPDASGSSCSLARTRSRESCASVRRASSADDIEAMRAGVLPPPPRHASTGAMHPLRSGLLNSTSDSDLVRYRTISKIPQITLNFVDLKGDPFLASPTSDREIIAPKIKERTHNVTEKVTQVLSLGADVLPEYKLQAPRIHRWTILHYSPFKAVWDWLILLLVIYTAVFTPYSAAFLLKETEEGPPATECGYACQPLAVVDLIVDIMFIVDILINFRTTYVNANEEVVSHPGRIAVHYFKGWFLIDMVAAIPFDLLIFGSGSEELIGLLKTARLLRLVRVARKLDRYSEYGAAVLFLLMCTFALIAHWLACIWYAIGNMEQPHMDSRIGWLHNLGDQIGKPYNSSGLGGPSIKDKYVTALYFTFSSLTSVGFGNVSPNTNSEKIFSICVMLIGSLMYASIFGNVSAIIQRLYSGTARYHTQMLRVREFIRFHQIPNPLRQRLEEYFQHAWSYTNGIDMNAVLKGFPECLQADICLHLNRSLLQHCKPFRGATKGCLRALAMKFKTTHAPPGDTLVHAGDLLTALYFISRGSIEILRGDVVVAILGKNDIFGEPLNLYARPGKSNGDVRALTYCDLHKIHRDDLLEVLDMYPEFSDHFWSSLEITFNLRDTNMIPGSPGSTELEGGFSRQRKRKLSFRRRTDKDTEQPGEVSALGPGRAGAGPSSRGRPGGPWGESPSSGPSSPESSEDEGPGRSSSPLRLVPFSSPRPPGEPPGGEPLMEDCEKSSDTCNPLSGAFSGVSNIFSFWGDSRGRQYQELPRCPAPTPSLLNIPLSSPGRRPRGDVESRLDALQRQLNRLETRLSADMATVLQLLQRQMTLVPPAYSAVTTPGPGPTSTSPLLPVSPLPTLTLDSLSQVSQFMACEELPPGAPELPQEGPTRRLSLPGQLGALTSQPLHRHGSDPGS
# procedureDetails: primary screen, population patch clamp on CHO cells stably expressing hERG; higher = less effect of the substance
Hit rate of the full screen: of about 310,000 compounds, about 14,000 (4.5%) showed an effect of 50% or more. The effect is printed as a negative number. For the sample, strong results were picked, then their nearest neighbours and some compounds at random.
observedProperty: hERG current change (%, negative = inhibition) at 10uM (%)
One number for each entry, in %.

CCC(C)c1ccc(NC(=O)CC(C)=O)cc1 (centres unmarked) ... 4.93
CCC(C)c1ccc(NC(=O)COc2c(F)c(F)c(C(F)(F)F)c(F)c2F)cc1 (centres unmarked) ... -57.4
CC(=O)c1ccc(OCCCN2CCCCC2)cc1.O=C(O)C(=O)O ... -22.2
CCCNC(=O)C1CCN(c2cc(-c3ccccc3)nc3ncnn23)CC1 ... -75.8
COc1ccccc1NC(=O)Nc1cccc(C(=O)O)c1 ... 17.5
CCn1cc(C(=O)NC2CCCCCC2)c(=O)c2ccc(C)nc21 ... -4.88
O=C(CSCc1cccc(Br)c1)NC1CC1 ... -6.25
Cl.Oc1ccc(CC2CC3CCN2CC3)cc1O (centres unmarked) ... 12.7

Below are some compounds; for each one, tell me its hERG current change (%, negative = inhibition) at 10uM.
1. CCn1cc(C(=O)NC2CCCCC2)c(=O)c2ccc(C)nc21
2. COc1ncnc(-c2ccccc2)c1-c1ccccc1
3. Cc1ccc2nc3c(cc(C(=O)NCCCn4ccnc4)n3C)c(=O)n2c1
4. Cc1ccc(S(=O)(=O)NC(=O)c2cc(C)n(CCCn3ccnc3)c2C)cc1
5. COC(=O)c1cc(C(=O)c2cccc(Cl)c2Cl)cn1C
6. CCOC(=O)c1ccc(-c2ccc3c(c2)CCC3)nc1C
7. Cc1ccc2nc3c(cc(C(=O)NC4CCCCC4)c(=N)n3C3CCCCC3)c(=O)n2c1

Reply:
8.6
1.86
-34.1
-2.28
-43.4
12.6
-74.7

Below are some compounds; for each one, tell me its hERG current change (%, negative = inhibition) at 10uM.
1. COC(=O)c1ccc(C2c3[nH]c4ccccc4c3C[C@H]3C(=O)N(C4CCN(Cc5ccccc5)CC4)CC(=O)N23)cc1 (some centres unmarked)
2. CCOC(=O)C1(Cc2cccc(OC)c2)CCN(Cc2cc(OC)ccc2OC)CC1
3. COc1cc(-c2nc3ccc4ccccc4c3c3c2CCC3)ccc1O

Reply:
1: -10; 2: -67.2; 3: 13.8

Below are some compounds; for each one, tell me its hERG current change (%, negative = inhibition) at 10uM.
1. Cc1ccc(S(=O)(=O)c2cc3c(=O)n4ccccc4nc3n(C3CCCC3)c2=N)cc1
2. CCCNC(=O)C1CCN(c2nc(C)cc(C)n2)CC1
3. Cc1ccccc1NC(=O)C1CCN(c2cc(-c3ccccc3)nc3ncnn23)CC1
4. C[C@H](O)[C@@]1(O)CC[C@H]2[C@@H]3CC[C@@H]4C[C@H](O)CC[C@]4(C)[C@H]3CC[C@@]21C
5. FC(F)(F)c1ccc(N2CCN(c3cc(-c4ccccc4)nc4ncnn34)CC2)nc1
6. CCOC(=O)c1[nH]ncc1CN1CCC(Cc2cccc(OC)c2)(C(=O)OCC)CC1

Reply:
6.01
0.749
-8.86
-0.0961
-65.1
-37.6
